experiment: Solubility in NMP-water binary mixtures; format: physicochemical; conditions: NMP-water binary mixture, x*NMP 0.7, 25 °C, aqueous with cosolvent or surfactant or cyclodextrin, thermodynamic from solid, x*NMP 0.7, 298.1 K
Reported solubility at 24 h values follow for various compounds

COMPOUND | solubility at 24 h [mg/mL]
O=C1Nc2ccc([N+](=O)[O-])cc2C1=NNC(=O)c1cccc([N+](=O)[O-])c1 [derivative 3] | 9.56
Nc1cccc(C(=O)NN=C2C(=O)Nc3ccc([N+](=O)[O-])cc32)c1 [derivative 2] | 34.5
O=C1Nc2ccc([N+](=O)[O-])cc2C1=NNC(=O)c1ccccc1C(F)(F)F [derivative 1] | 285

###

assay: Solubility in neat solvents, shake-flask with spectrophotometric determination; format: physicochemical; details: 25 °C, organic solvent or mixture, thermodynamic from solid; neat γ-heptalactone, 298.1 K
Reported solubility at 24 h values follow for various compounds

CHEMICAL STRING | solubility at 24 h
O=C1Nc2ccc([N+](=O)[O-])cc2C1=NNC(=O)c1ccccc1C(F)(F)F | 1780 µg/mL
Nc1cccc(C(=O)NN=C2C(=O)Nc3ccc([N+](=O)[O-])cc32)c1 | 1090 µg/mL
O=C1Nc2ccc([N+](=O)[O-])cc2C1=NNC(=O)c1cccc([N+](=O)[O-])c1 | 440 µg/mL

###

assay: Solubility in neat solvents, shake-flask with spectrophotometric determination; type: physicochemical; settings: neat 1-butanol, 25 °C, organic solvent or mixture, thermodynamic from solid
EXPERIMENTAL ENDPOINT: solubility at 24 h (µg/mL)

CHEMICAL STRING | UNIT TAG | EXPERIMENTAL RESULT
O=C1Nc2ccc([N+](=O)[O-])cc2C1=NNC(=O)c1cccc([N+](=O)[O-])c1 | µg/mL | 20
Nc1cccc(C(=O)NN=C2C(=O)Nc3ccc([N+](=O)[O-])cc32)c1 | µg/mL | 70
O=C1Nc2ccc([N+](=O)[O-])cc2C1=NNC(=O)c1ccccc1C(F)(F)F | µg/mL | 470

###

experiment: Solubility in neat solvents, shake-flask with spectrophotometric determination; type: physicochemical; conditions: 25 °C, organic solvent or mixture, thermodynamic from solid; neat γ-nonanoic lactone, 298.1 K

CHEMICAL STRING | solubility at 24 h
O=C1Nc2ccc([N+](=O)[O-])cc2C1=NNC(=O)c1ccccc1C(F)(F)F | 1160 µg/mL
O=C1Nc2ccc([N+](=O)[O-])cc2C1=NNC(=O)c1cccc([N+](=O)[O-])c1 | 280 µg/mL
Nc1cccc(C(=O)NN=C2C(=O)Nc3ccc([N+](=O)[O-])cc32)c1 | 710 µg/mL

###

assay: Solubility in neat solvents, shake-flask with spectrophotometric determination; assay type: physicochemical; settings: neat ε-caprolactone, 25 °C, organic solvent or mixture, thermodynamic from solid
EXPERIMENTAL ENDPOINT: solubility at 24 h (mg/mL)

CHEMICAL STRING | EXPERIMENTAL ENDPOINT | UNIT TAG | EXPERIMENTAL RESULT
Nc1cccc(C(=O)NN=C2C(=O)Nc3ccc([N+](=O)[O-])cc32)c1 | solubility at 24 h | mg/mL | 1.01
O=C1Nc2ccc([N+](=O)[O-])cc2C1=NNC(=O)c1cccc([N+](=O)[O-])c1 | solubility at 24 h | mg/mL | 0.34
O=C1Nc2ccc([N+](=O)[O-])cc2C1=NNC(=O)c1ccccc1C(F)(F)F | solubility at 24 h | mg/mL | 1.6
